- assay_method_text: Photometric activity determination of 7β-HSDH and mutants (decrease in absorbance at 340 nm, DHCA reduction with NADPH)
- Format: biochemical
- test_settings: Table 4, variants modified at position 64; 10 mM DHCA, NADPH, KPi pH 8.0
readout_name: Specific activity (U/mg)
Field format: number, assumed U/mg, no unit text.

Some entries whose results are on file:
7β-HSDH [R64C]: 7β-HSDH mutant, R in position 64 replaced by C (protein, UniProt A4ECA9 1-263, looked up, variant R64C) 7beta-hydroxysteroid …: MNLREKYGEWGLILGATEGVGKAFCEKIAAGGMNVVMVGRREEKLNVLAGEIRETYGVETKVVCADFSQPGAAETVFAATEGLDMGFMSYVACLHSFGKIQDTPWEKHEAMINVNVVTFLKCFHHYMRIFAAQDRGAVINVSSMTGISSSPWNGQYGAGKAFILKMTEAVACECEGTGVDVEVITLGTTLTPSLLSNLPGGPQGEAVMKIALTPEECVDEAFEKLGKELSVIAGQRNKDSVHDWKANHTEDEYIRYMGSFYRD :: 14.19
7β-HSDH [R64P]: 7β-HSDH mutant, R in position 64 replaced by P (protein, UniProt A4ECA9 1-263, looked up, variant R64P) 7beta-hydroxysteroid …: MNLREKYGEWGLILGATEGVGKAFCEKIAAGGMNVVMVGRREEKLNVLAGEIRETYGVETKVVPADFSQPGAAETVFAATEGLDMGFMSYVACLHSFGKIQDTPWEKHEAMINVNVVTFLKCFHHYMRIFAAQDRGAVINVSSMTGISSSPWNGQYGAGKAFILKMTEAVACECEGTGVDVEVITLGTTLTPSLLSNLPGGPQGEAVMKIALTPEECVDEAFEKLGKELSVIAGQRNKDSVHDWKANHTEDEYIRYMGSFYRD :: 19.1
7β-HSDH [R64K]: 7β-HSDH mutant, R in position 64 replaced by K (protein, UniProt A4ECA9 1-263, looked up, variant R64K) 7beta-hydroxysteroid …: MNLREKYGEWGLILGATEGVGKAFCEKIAAGGMNVVMVGRREEKLNVLAGEIRETYGVETKVVKADFSQPGAAETVFAATEGLDMGFMSYVACLHSFGKIQDTPWEKHEAMINVNVVTFLKCFHHYMRIFAAQDRGAVINVSSMTGISSSPWNGQYGAGKAFILKMTEAVACECEGTGVDVEVITLGTTLTPSLLSNLPGGPQGEAVMKIALTPEECVDEAFEKLGKELSVIAGQRNKDSVHDWKANHTEDEYIRYMGSFYRD :: 15.1
7β-HSDH [R64G]: 7β-HSDH mutant, R in position 64 replaced by G (protein, UniProt A4ECA9 1-263, looked up, variant R64G) 7beta-hydroxysteroid …: MNLREKYGEWGLILGATEGVGKAFCEKIAAGGMNVVMVGRREEKLNVLAGEIRETYGVETKVVGADFSQPGAAETVFAATEGLDMGFMSYVACLHSFGKIQDTPWEKHEAMINVNVVTFLKCFHHYMRIFAAQDRGAVINVSSMTGISSSPWNGQYGAGKAFILKMTEAVACECEGTGVDVEVITLGTTLTPSLLSNLPGGPQGEAVMKIALTPEECVDEAFEKLGKELSVIAGQRNKDSVHDWKANHTEDEYIRYMGSFYRD :: 12.36

# molecule 7β-HSDH [R64A]: 7β-HSDH mutant, R in position 64 replaced by A (protein, UniProt A4ECA9 1-263, looked up, variant R64A) 7beta-hydroxysteroid …: MNLREKYGEWGLILGATEGVGKAFCEKIAAGGMNVVMVGRREEKLNVLAGEIRETYGVETKVVAADFSQPGAAETVFAATEGLDMGFMSYVACLHSFGKIQDTPWEKHEAMINVNVVTFLKCFHHYMRIFAAQDRGAVINVSSMTGISSSPWNGQYGAGKAFILKMTEAVACECEGTGVDVEVITLGTTLTPSLLSNLPGGPQGEAVMKIALTPEECVDEAFEKLGKELSVIAGQRNKDSVHDWKANHTEDEYIRYMGSFYRD ; its Specific activity = 13.77
